test system: ADCK4; settings: concentration: 1 μM, replicates: in singlicate; n = 1;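 further: KINOMEscan kinase panel screen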
Readings of %Inh for the listed compounds
API: value field is a number in %; no unit string.

Recorded results for 3 compounds are shown here.
CN1CCC(n2cnc(-c3ccc(F)cc3)c2-c2ccnc(NC3CCNCC3)n2)CC1
5
Cl.c1ccc(Cn2ccc3cc(Nc4ncnc5ccccc45)ccc32)cc1
4
CCc1nc(-c2cccc(C)c2)c(-c2ccnc(NC(=O)c3ccccc3)c2)s1
20

Now turn to the next compound.
Report %Inh, nothing else, for this compound: "O=C(Nc1n[nH]c2nc(-c3ccco3)c(Br)cc12)c1ccc(CN2CCCC2)cc1.O=C(O)[C@H](O)[C@@H](O)C(=O)O" 0

---

system: RSK3(Kin.Dom.1-N-terminal); construct: gene RPS6KA2; details: concentration: 1 μM, replicates: in singlicate; n = 1
Please use YES for %Inh under 7% and NO for everything else, ties included.

Check out these entries, answers already filled in.
c1ccc(-c2ccc3c(-c4ccnc(Nc5ccc6c(c5)OCCO6)n4)cnn3n2)cc1 [GW818941]
YES
Cc1cc(N2CCC(NS(=O)(=O)c3ccc(F)cc3)CC2)nc(Nc2cccc(C#N)c2)n1.O=C(O)C(F)(F)F [GSK1653537]
NO
Fc1ccc(-c2ncn(CCCNCc3ccccc3)c2-c2ccncc2)cc1
NO
CCCc1ccc(S(=O)(=O)NC2CCN(c3ccnc(Nc4ccc(OC)cc4)n3)C2)cc1 (stereo not drawn) [GSK1379737]
YES
OCCOCCn1ccc2ncnc(Nc3ccc(Oc4cccc(Cl)c4)c(Cl)c3)c21
YES
O=C(c1ccc(-c2cc(-c3c[nH]nc3-c3ccccn3)ccn2)cc1)N1CCCC1 [GW792479]
YES
O=C(NCCCN1CCCC1=O)c1cnc(NCc2cc(Cl)ccc2Cl)nc1NC1CCNCC1
NO

Switching to the query record.
Please indicate whether the reported %Inh of O=C(Nc1ccccc1F)NC1CCN(c2ccnc(Nc3ccc(F)cc3)n2)C1 (stereo not drawn) [GSK1379722] is strictly below 7%. NO

---

test system: RSK2(Kin.Dom.2-C-terminal); construct: gene RPS6KA3; conditions: concentration: 1 μM, replicates: in singlicate; n = 1
readout type: %Inh (%)
Record the value in %, omitting the unit from your answer.

Solved entries (count: 3):
Fc1cccc(COc2ccc(Nc3ncnc4cc[nH]c34)cc2Cl)c1
0
Cc1ccc(NC(=O)c2cccc(C#N)c2)cc1-c1ccc(C(=O)Nc2ccncc2)cc1
6
O=c1cc(N2CCOCC2)nc2n(Cc3cccc(Cl)c3)ccn12
27

As a next step, examine the compound that follows.
Return %Inh for the following compound: CCCc1ccc(S(=O)(=O)NC2CCN(c3ccnc(Nc4ccc(OC)cc4)n3)C2)cc1 (stereo not shown) 13

---

system: MEK4; construct: gene MAP2K4; details: concentration: 1 μM, replicates: in singlicate; n = 1
Simple rule here: %Inh less than 2% is criterion met, otherwise criterion not met.

Example entries begin here.
CNc1nccc(-c2c(-c3ccc(F)cc3)ncn2C2CCN(C)CC2)n1
criterion met
Cc1cccc(-c2nc(Nc3ccc4[nH]nnc4c3)c3ccccc3n2)n1
criterion met
O=C(Nc1n[nH]c2nc(-c3ccco3)c(Br)cc12)c1ccc(CN2CCCC2)cc1.O=C(O)[C@H](O)[C@@H](O)C(=O)O
criterion met
CN1c2ccc(-c3ccc(C(=O)NCCO)cc3)cc2-c2[nH]ncc2S1(=O)=O
criterion met

Determine whether this compound shows %Inh lower than 2% (ties excluded): COc1ccc(Nc2nccc(N3CCC(NC(=O)c4cccc(NC(C)=O)c4)C3)n2)cc1 (stereo not shown) criterion not met

Determine if "CCc1nc(-c2cccc(N(C)S(=O)(=O)c3ccccc3)c2)c(-c2ccnc(Nc3ccc(N4CCN(C(C)=O)CC4)nc3)n2)s1" shows %Inh strictly lower than 2%. criterion met

State whether 2% exceeds %Inh recorded for "Cn1ccc2ncnc(Oc3ccc(NC(=O)Nc4cccnc4)c(Cl)c3)c21" . criterion met

Quick check: does "Cn1cc(-c2ccc3c(c2)CCN3C(=O)Cc2cccc(C(F)(F)F)c2)c2c(N)ncnc21" have %Inh under 2%? criterion not met

Take the compound "COC(=O)c1cccc(NC(=O)NCCNc2ccnc(Nc3ccc(F)cc3)n2)c1" and say whether its %Inh is less than 2%. criterion not met

Threshold test, %Inh < 2%: "Oc1ccc2ncnc(Nc3ccc(OCc4ccccc4)cc3)c2c1" criterion not met

Criterion: %Inh strictly below 2%. Is it met by "Nc1nc(-c2cccnc2)c(-c2ccnc3ccccc23)s1" ? criterion met
